Details: 298.15 K; 101.33 kPa; Liquid; Vibrating tube method
assayMetric: mass density (kg/m3)

Past entries and their recorded results:
C1CCCCCCC1 : 831.47
c1ccccc1 : 873.57
C1=CCCCC1 : 805.69
C1CCCCC1 : 773.8

[P] CC1CCCCC1
[Q] CCOS(=O)(=O)[O-].CC[n+]1ccccc1 [1-ethylpyridinium ethyl sulfate]
-- ask Which value of mass density is greater, the one for P or the one for Q ? Selection: enter the item's label.
-- reply Q

###

Test: refractive index (Na D-line) (dimensionless)
Settings: 298.15 K; 101.33 kPa; Liquid; Standard Abbe refractometry
assayMetric: refractive index

C1CCCCC1 : 1.4236
C1CCCCCCC1 : 1.45598
CCOS(=O)(=O)[O-].CC[n+]1ccccc1 [1-ethylpyridinium ethyl sulfate] : 1.50525
c1ccccc1 : 1.49774
CC1CCCCC1 : 1.42062
C1=CCCCC1 : 1.44378
